- Tested target: GSPT1 (Homo sapiens)
- Construct: Whole cell extract was prepared with RIPA buffer according to manufacturer's protocol; endogenous in cells; host or cells: Jurkat cells
- Sequence (P15170 whole entry): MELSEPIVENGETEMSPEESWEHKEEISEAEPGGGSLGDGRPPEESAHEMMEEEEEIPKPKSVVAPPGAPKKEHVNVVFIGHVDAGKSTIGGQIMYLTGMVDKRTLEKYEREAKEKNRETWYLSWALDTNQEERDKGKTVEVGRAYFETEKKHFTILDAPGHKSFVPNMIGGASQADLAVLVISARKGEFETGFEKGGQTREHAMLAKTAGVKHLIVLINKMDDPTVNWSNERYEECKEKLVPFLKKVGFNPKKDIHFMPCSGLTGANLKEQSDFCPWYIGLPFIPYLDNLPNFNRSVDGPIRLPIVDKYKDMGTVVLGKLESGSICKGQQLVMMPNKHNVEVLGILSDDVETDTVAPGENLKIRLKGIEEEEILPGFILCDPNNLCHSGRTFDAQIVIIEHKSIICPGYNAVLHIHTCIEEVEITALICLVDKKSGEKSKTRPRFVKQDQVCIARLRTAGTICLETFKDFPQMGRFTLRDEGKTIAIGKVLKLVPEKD
- Test protocol: Western blot analysis of GSPT1 protein levels in Jurkat cells
- Assay type: cell-based
- Experimental context: 1 uM compound, DMSO = 100.00
Observable: GSPT1 protein level (% of DMSO control) at 1 µM (%)

Challenge: Param readout = GSPT1 protein level (% of DMSO control) at 1 µM; param system = GSPT1 (Homo sapiens); param query = Cc1ccc(NC(=S)NCc2ccc3c(c2)CN([C@H]2CCCC(=O)NC2=O)C3=O)cc1Cl [Compound 26] ; response: value
Response given: 20.8

Challenge: Param readout = GSPT1 protein level (% of DMSO control) at 1 µM; param system = GSPT1 (Homo sapiens); param query = Cc1ccc(CNC(=O)NCc2ccc3c(c2)CN([C@H]2CCCC(=O)NC2=O)C3=O)cc1Cl [Compound 18] ; response: value
Response given: 20.2

Challenge: Param readout = GSPT1 protein level (% of DMSO control) at 1 µM; param system = GSPT1 (Homo sapiens); param query = Cc1ccc(NC(=O)NCc2cc3c(cc2F)C(=O)N([C@H]2CCCC(=O)NC2=O)C3)cc1Cl [Compound 22] ; response: value
Response given: 5.56

1. Cc1ccc(NC(=O)NCc2ccc3c(c2)CN(C2CCCC(=O)NC2=O)C3=O)cc1 (stereo not shown) [Compound 2]
2. O=C1CCCC(N2Cc3cc(CNC(=O)Nc4cccc(Cl)c4)ccc3C2=O)C(=O)N1 (stereo not shown) [Compound 3]
3. Cc1ccc(CNC(=O)NCc2cccc3c2CN([C@H]2CCCC(=O)NC2=O)C3=O)cc1Cl [Compound 20]
Challenge: Please rank these compounds by GSPT1 protein level (% of DMSO control) at 1 µM in descending order. The response must list the labels following the requested ordering.
Response given: 3, 2, 1
(3: 160%, 2: 46.8%, 1: 23%)

a. Cc1ccc(N(C)C(=O)NCc2ccc3c(c2)CN([C@H]2CCCC(=O)NC2=O)C3=O)cc1Cl [Compound 21]
b. O=C(Cc1ccc(C(F)(F)F)c(Cl)c1)NCc1ccc2c(c1)CN([C@H]1CCCC(=O)NC1=O)C2=O [Compound 10]
c. Cc1ccc(CCNC(=O)NCc2ccc3c(c2)CN([C@H]2CCCC(=O)NC2=O)C3=O)cc1Cl [Compound 19]
d. Cc1ccc(NC(=O)NCc2ccc3c(c2)CN([C@H]2CCCC(=O)NC2=O)C3=O)cc1Cl [Compound 1]
Challenge: # ascending order, key=GSPT1 protein level (% of DMSO control) at 1 µM The response must list the labels following the requested ordering.
Response given: d, c, b, a
(d: 3.63%, c: 26.8%, b: 49.3%, a: 134%)

a. CCCNC(=O)NCc1ccc2c(c1)CN([C@H]1CCCC(=O)NC1=O)C2=O [Compound 4]
b. Cc1ccc(NC(=O)NCc2ccc3c(c2)C(=O)N([C@H]2CCCC(=O)NC2=O)C3=O)cc1Cl [Compound 27]
c. O=C1CCC[C@H](N2Cc3cc(CNC(=O)C(F)(F)c4ccc(F)cc4)ccc3C2=O)C(=O)N1 [Compound 25]
Challenge: # ascending order, key=GSPT1 protein level (% of DMSO control) at 1 µM The response must list the labels following the requested ordering.
Response given: b, c, a
(b: 23.8%, c: 63.5%, a: 116%)

A. Cc1ccc(NC(=O)NCCc2ccc3c(c2)CN([C@H]2CCCC(=O)NC2=O)C3=O)cc1Cl [Compound 24]
B. Cc1ccc(CC(=O)NCc2ccc3c(c2)CN([C@H]2CCCC(=O)NC2=O)C3=O)cc1 [Compound 9]
Challenge: Among A and B , whose measured GSPT1 protein level (% of DMSO control) at 1 µM is the smaller figure? Which one? Tell me its label.
Response given: B
(B: 32.1%, A: 126%)
